tested on: 156681-154-R-J1-PDC complex spheroid viability; assay: Anticancer human tumor 156681-154-R-J1-PDC patient-derived melanoma cell line growth inhibition [CLK]; details: second compound 10 µM; first compound 0.0316 µM; stronger effect = lower value
experimental-readout: viability, T/C (%)
Answers are plain numbers, in %.

The following molecules have reported results that may help.
CC1COCCN1c1cc(C2(S(C)(=N)=O)CC2)nc(-c2ccnc3[nH]ccc23)n1 (stereo not given) + CNC(=O)c1ccc(Nc2nc(OC3CCCC3)c3c(-c4ccc5nc(C)oc5c4)c[nH]c3n2)c(OC)c1 ... 51.5
O=c1[nH]cc(F)c(=O)[nH]1 + CN1CCN(c2cc(C(=O)Nc3cc4cc(-c5cnn(C)c5)ccc4cn3)ccn2)CC1 ... 0.09
CC1(C)CCC(CN2CCN(c3ccc(C(=O)NS(=O)(=O)c4ccc(NCC5CCOCC5)c([N+](=O)[O-])c4)c(Oc4cnc5[nH]ccc5c4)c3)CC2)=C(c2ccc(Cl)cc2)C1 + CNC(=O)c1ccc(Nc2nc(OC3CCCC3)c3c(-c4ccc5nc(C)oc5c4)c[nH]c3n2)c(OC)c1 ... 46.6
O=c1[nH]cc(F)c(=O)[nH]1 + CNC(=O)c1ccc(Nc2nc(OC3CCCC3)c3c(-c4ccc5nc(C)oc5c4)c[nH]c3n2)c(OC)c1 ... 51
Nc1ccccc1NC(=O)c1ccc(CNC(=O)OCc2cccnc2)cc1 + CN1CCN(c2cc(C(=O)Nc3cc4cc(-c5cnn(C)c5)ccc4cn3)ccn2)CC1 ... 0.03

Would you mind giving viability, T/C for every molecule in the list below?
1. CC(Nc1ccc2c(c1)OCCn1cc(N3C(=O)OCC3C(F)F)nc1-2)C(N)=O (stereo not given) + CN1CCN(c2cc(C(=O)Nc3cc4cc(-c5cnn(C)c5)ccc4cn3)ccn2)CC1
2. C#Cc1c(F)ccc2cc(O)cc(-c3ncc4c(N5CC6CCC(C5)N6)nc(OCC56CCCN5CC(F)C6)nc4c3F)c12 (stereo not given) + CN1CCN(c2cc(C(=O)Nc3cc4cc(-c5cnn(C)c5)ccc4cn3)ccn2)CC1
3. Nc1ccn(C2OC(CO)C(O)C2(F)F)c(=O)n1 (stereo not given) + CN1CCN(c2cc(C(=O)Nc3cc4cc(-c5cnn(C)c5)ccc4cn3)ccn2)CC1
4. CC1COCCN1c1cc(C2(S(C)(=N)=O)CC2)nc(-c2ccnc3[nH]ccc23)n1 (stereo not given) + CN1CCN(c2cc(C(=O)Nc3cc4cc(-c5cnn(C)c5)ccc4cn3)ccn2)CC1
5. CCCS(=O)(=O)Nc1ccc(F)c(C(=O)c2c[nH]c3ncc(-c4ccc(Cl)cc4)cc23)c1F + CNC(=O)c1ccc(Nc2nc(OC3CCCC3)c3c(-c4ccc5nc(C)oc5c4)c[nH]c3n2)c(OC)c1
6. O=C(c1cc(Cc2n[nH]c(=O)c3ccccc23)ccc1F)N1CCN(C(=O)C2CC2)CC1 + CN1CCN(c2cc(C(=O)Nc3cc4cc(-c5cnn(C)c5)ccc4cn3)ccn2)CC1
7. C=CC(=O)N1CCN(c2nc(=O)n(-c3c(C)ccnc3C(C)C)c3nc(-c4c(O)cccc4F)c(F)cc23)C(C)C1 (stereo not given) + CN1CCN(c2cc(C(=O)Nc3cc4cc(-c5cnn(C)c5)ccc4cn3)ccn2)CC1
8. C=C(F)C(=O)N1CCN(c2nc(OCC3CCCN3C)nc3c2CCN(c2cccc4cccc(Cl)c24)C3)CC1CC#N (stereo not given) + CN1CCN(c2cc(C(=O)Nc3cc4cc(-c5cnn(C)c5)ccc4cn3)ccn2)CC1

[0.11, 0.19, 0.15, 0.16, 34.9, 0.1, 0.12, 0.17]

Would you mind giving viability, T/C for every molecule in the list below?
1. O=C(c1cc(Cc2n[nH]c(=O)c3ccccc23)ccc1F)N1CCN(C(=O)C2CC2)CC1 + CNC(=O)c1ccc(Nc2nc(OC3CCCC3)c3c(-c4ccc5nc(C)oc5c4)c[nH]c3n2)c(OC)c1
2. COc1ccc([C@@H](O)c2cc(-c3ncnc4cc(N5CCOCC5)ccc34)c(F)cc2Cl)nn1 + CN1CCN(c2cc(C(=O)Nc3cc4cc(-c5cnn(C)c5)ccc4cn3)ccn2)CC1

1: 50.6; 2: 0.06

----------
tested on: 156681-154-R-J1-PDC complex spheroid viability; assay: Anticancer human tumor 156681-154-R-J1-PDC cell line growth inhibition [CLK]; settings: second compound 3.16 µM; first compound 0.316 µM; stronger effect = lower value;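 further: spheroids exposed to the agents for seven days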;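 on viability, T/C: 100% = DMSO vehicle control viability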
experimental-readout: viability, T/C (%)
Numbers only, in %.

CC1COCCN1c1cc(C2(S(C)(=N)=O)CC2)nc(-c2ccnc3[nH]ccc23)n1 (stereo not given) + CNC(=O)c1ccc(Nc2nc(OC3CCCC3)c3c(-c4ccc5nc(C)oc5c4)c[nH]c3n2)c(OC)c1 ... 42.9
O=C(c1cc(Cc2n[nH]c(=O)c3ccccc23)ccc1F)N1CCN(C(=O)C2CC2)CC1 + CNC(=O)c1ccc(Nc2nc(OC3CCCC3)c3c(-c4ccc5nc(C)oc5c4)c[nH]c3n2)c(OC)c1 ... 47.9
C=CC(=O)N1CCN(c2nc(=O)n(-c3c(C)ccnc3C(C)C)c3nc(-c4c(O)cccc4F)c(F)cc23)C(C)C1 (stereo not given) + CNC(=O)c1ccc(Nc2nc(OC3CCCC3)c3c(-c4ccc5nc(C)oc5c4)c[nH]c3n2)c(OC)c1 ... 33.4
O=C(c1cc(Cc2n[nH]c(=O)c3ccccc23)ccc1F)N1CCN(C(=O)C2CC2)CC1 + CN1CCN(c2cc(C(=O)Nc3cc4cc(-c5cnn(C)c5)ccc4cn3)ccn2)CC1 ... 1.83

Report viability, T/C, nothing else, for this compound: CCc1c2c(nc3ccc(O)cc13)-c1cc3c(c(=O)n1C2)COC(=O)[C@]3(O)CC + CN1CCN(c2cc(C(=O)Nc3cc4cc(-c5cnn(C)c5)ccc4cn3)ccn2)CC1
1.39

----------
system: 156681-154-R-J1-PDC complex spheroid viability; test: Anticancer human tumor 156681-154-R-J1-PDC cell line growth inhibition [CLK]; conditions: second compound 1 µM; first compound 0.0316 µM; active = viability on the fitted dose curve at most 10% of control; inactive = the rest;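 further: spheroids exposed to the agents for seven days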
A correct response names exactly one class from active, inactive

CC(Nc1ccc2c(c1)OCCn1cc(N3C(=O)OCC3C(F)F)nc1-2)C(N)=O (stereo unspecified) + CN1CCN(c2cc(C(=O)Nc3cc4cc(-c5cnn(C)c5)ccc4cn3)ccn2)CC1 ... active

Which outcome did this test record for the compound C#Cc1c(F)ccc2cc(O)cc(-c3ncc4c(N5CC6CCC(C5)N6)nc(OCC56CCCN5CC(F)C6)nc4c3F)c12 (stereo unspecified) + CN1CCN(c2cc(C(=O)Nc3cc4cc(-c5cnn(C)c5)ccc4cn3)ccn2)CC1 ?
active

Which outcome did this test record for the compound CCc1c2c(nc3ccc(O)cc13)-c1cc3c(c(=O)n1C2)COC(=O)[C@]3(O)CC + CNC(=O)c1ccc(Nc2nc(OC3CCCC3)c3c(-c4ccc5nc(C)oc5c4)c[nH]c3n2)c(OC)c1 ?
inactive

Which outcome did this test record for the compound CC1COCCN1c1cc(C2(S(C)(=N)=O)CC2)nc(-c2ccnc3[nH]ccc23)n1 (stereo unspecified) + CN1CCN(c2cc(C(=O)Nc3cc4cc(-c5cnn(C)c5)ccc4cn3)ccn2)CC1 ?
active

----------
Assignment: determine reported IC50 for the given compounds.
system: 156681-154-R-J1-PDC complex spheroid viability; assay: Anticancer human tumor 156681-154-R-J1-PDC cell line growth inhibition [CLK]; conditions: curve of first compound; second compound 3.16 µM;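 further: spheroids exposed to the agents for seven days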

The following compounds have reported results that may help.
CC(C)CC(NC(=O)C(Cc1ccccc1)NC(=O)c1cnccn1)B(O)O (stereo unspecified) + CN1CCN(c2cc(C(=O)Nc3cc4cc(-c5cnn(C)c5)ccc4cn3)ccn2)CC1 ... < 0.949 nM
CCCS(=O)(=O)Nc1ccc(F)c(C(=O)c2c[nH]c3ncc(-c4ccc(Cl)cc4)cc23)c1F + CN1CCN(c2cc(C(=O)Nc3cc4cc(-c5cnn(C)c5)ccc4cn3)ccn2)CC1 ... < 31.6 nM
COC1C=CCC(C)C(C)S(=O)(=O)NC(=O)c2ccc3c(c2)N(CC2CCC21)CC1(CCCc2cc(Cl)ccc21)CO3 (stereo unspecified) + CN1CCN(c2cc(C(=O)Nc3cc4cc(-c5cnn(C)c5)ccc4cn3)ccn2)CC1 ... < 31.6 nM
C#Cc1c(F)ccc2cc(O)cc(-c3ncc4c(N5CC6CCC(C5)N6)nc(OCC56CCCN5CC(F)C6)nc4c3F)c12 (stereo unspecified) + CNC(=O)c1ccc(Nc2nc(OC3CCCC3)c3c(-c4ccc5nc(C)oc5c4)c[nH]c3n2)c(OC)c1 ... < 31.6 nM
Nc1ccccc1NC(=O)c1ccc(CNC(=O)OCc2cccnc2)cc1 + CN1CCN(c2cc(C(=O)Nc3cc4cc(-c5cnn(C)c5)ccc4cn3)ccn2)CC1 ... < 31.6 nM

Now for another entry.
Tell me its IC50 on 156681-154-R-J1-PDC complex spheroid viability: CC(CO)NC(=O)c1cc(-c2ccc(Cl)cc2)nn(-c2cnn(C)c2)c1=O (stereo unspecified) + CN1CCN(c2cc(C(=O)Nc3cc4cc(-c5cnn(C)c5)ccc4cn3)ccn2)CC1
< 31.6 nM
